- Method notes: Solubility of naltrexone in solvents
- Type: physicochemical
- Measurement setup: naltrexone HCl salt, in water; read-out: water solubility
Where a name gives a salt, the structure may show the parent alone.
Value kind: solubility

Name the reported solubility value associated with the molecule O=C1CC[C@@]2(O)[C@H]3Cc4ccc(O)c5c4[C@@]2(CCN3CC2CC2)[C@H]1O5 [naltrexone HCl salt] ~100 mg/mL

* * *

- Method notes: Solubility of naltrexone in solvents
- Format: physicochemical
- Measurement setup: ethyl acetate, organic solvent or mixture; naltrexone free base, in EA; read-out: ethyl acetate (EA) solubility
Value kind: solubility (mg/mL)
Quick note: give the figure in mg/mL, leave out the unit.

Can you look up the measured solubility of O=C1CC[C@@]2(O)[C@H]3Cc4ccc(O)c5c4[C@@]2(CCN3CC2CC2)[C@H]1O5 [naltrexone, Naltrexone] for me? 26

* * *

- Method notes: Solubility of naltrexone in solvents
- Format: physicochemical
- Measurement setup: dichloromethane, organic solvent or mixture; naltrexone free base, in DCM; read-out: dichloromethane (DCM) solubility
Value kind: solubility (mg/mL)
Answer in mg/mL, number only, no unit symbol.

Sample O=C1CC[C@@]2(O)[C@H]3Cc4ccc(O)c5c4[C@@]2(CCN3CC2CC2)[C@H]1O5 [naltrexone, Naltrexone] — what was its solubility? 100

* * *

- Method notes: Solubility of naltrexone in solvents
- Type: physicochemical
- Measurement setup: benzyl alcohol, organic solvent or mixture; naltrexone free base, in BA; read-out: benzyl alcohol (BA) solubility
- Excerpt: In one aspect, the naltrexone is a free base. In another aspect, the naltrexone is an HCl salt.
Value kind: solubility

# input compound: O=C1CC[C@@]2(O)[C@H]3Cc4ccc(O)c5c4[C@@]2(CCN3CC2CC2)[C@H]1O5 [naltrexone, Naltrexone] ; wanted: its solubility > 250 mg/mL

Values were extracted from patent US20240000772A1.
